Quick reference for %Inh among some molecules
tested on: MKNK1; settings: concentration: 1 μM,replicates: in singlicate; n = 1;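 further: KINOMEscan kinase panel screen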
Give the value, in units of %, as a plain number.

Illustrative cases are given below, each with its answer.
Cn1ccc2ncnc(Oc3ccc(NC(=O)Nc4ccnc(C(F)(F)F)c4)c(Cl)c3)c21 :: 0
CN(c1ccccc1CNc1nc(Nc2ccc3c(c2)CC(=O)N3)ncc1C(F)(F)F)S(C)(=O)=O :: 0

The molecule identified as `C[C@@H]1CNc2c(sc3ccc4nc(-c5ccc(O)cc5)ccc4c23)C(=O)N1` registered its %Inh at 27

The molecule identified as `CCn1c(-c2nonc2N)nc2cncc(CNC3CCNCC3)c21.Cl` registered its %Inh at 0

The molecule identified as CCNCC(Cc1ccccc1)NC(=O)c1cc(Br)c(-c2ccnc3[nH]ccc23)s1.Cl.Cl (stereo not drawn) registered its %Inh at 0

The molecule identified as `CN(c1ccc2c(c1)nc(NCc1ccc(F)cc1)n2C)c1ccnc(Nc2ccc(CS(C)(=O)=O)cc2)n1.Cl` registered its %Inh at 0

The molecule identified as `O=C(Nc1ccc(Oc2ccc3nc(NC(=O)C4CC4)cn3n2)c(F)c1)c1cccn(-c2ccccc2)c1=O` registered its %Inh at 20

The molecule identified as `COc1cc2nccc(Nc3ccc(Oc4ccccc4)cc3)c2cc1OC.Cl` registered its %Inh at 0

The molecule identified as `O=C(Nc1cccc(C(F)(F)F)c1)c1cccc(Oc2ccc3nccn3n2)c1` registered its %Inh at 7

The molecule identified as `CN1CCN(CCCNc2nccc(-c3c(-c4ccc(F)cc4)nn4cc(C(N)=O)ccc34)n2)CC1` registered its %Inh at 10

The molecule identified as `CSc1nccc(-c2c(-c3ccc(F)cc3)ncn2CCCN2CCOCC2)n1.Cl` registered its %Inh at 0

The molecule identified as `Cc1ccc(C(=O)Nc2ccc(Oc3ccc4nc(NC(=O)C5CC5)cn4c3)c(F)c2)c(=O)n1-c1ccccc1` registered its %Inh at 88

The molecule identified as `Nc1nccc(-c2ccc3c(N)n[nH]c3c2)n1` registered its %Inh at 11

The molecule identified as `Cc1ccc(CC(=O)N2CCc3cc(-c4cn(C)c5ncnc(N)c45)ccc32)cc1` registered its %Inh at 0

The molecule identified as CS(=O)c1ccc(-c2coc3ccc(-c4n[nH]c(=O)o4)cc23)cc1 (stereo not drawn) registered its %Inh at 9

The molecule identified as `O=C1NCCc2[nH]c(-c3ccncc3)cc21` registered its %Inh at 13

The molecule identified as `c1ccc(Oc2ccc(Nc3ccnc4ccc(-c5ccccn5)cc34)cc2)cc1` registered its %Inh at 0

The molecule identified as `Cn1ccc2ncnc(Oc3ccc(NC(=O)Nc4cc(C(C)(C)C)on4)c(Cl)c3)c21` registered its %Inh at 3

---

test system: EPHB3; conditions: concentration: 1 μM,replicates: in singlicate; n = 1
Recorded Metric: %Inh (%)
Give the value, in units of %, as a plain number.

Nc1nccc(-c2ccc3c(N)n[nH]c3c2)n1 :: 16

The observed %Inh for N#Cc1cccc(C(=O)NC2CCN(c3ccnc(Nc4ccc(F)cc4)n3)C2)c1 (centres unmarked) when tested with EPHB3 stands at 13

The observed %Inh for `O=C(NCC1CC1)c1ccc(-c2cc(C(=O)NC3CC3)ccc2F)cc1` when tested with EPHB3 stands at 0

The observed %Inh for `COc1cc2ncn(-c3cc(OCC4CCCCC4)c(C(N)=O)s3)c2cc1OC` when tested with EPHB3 stands at 21

The observed %Inh for `NC(=O)c1ccc(-c2cc3ncnc(SCC(=O)O)c3s2)cc1` when tested with EPHB3 stands at 26

The observed %Inh for `CC(=O)Nc1nc2cnc(Nc3cc(NC(=O)c4cccc(CC(C)(C)C#N)c4)ccc3C)nc2s1` when tested with EPHB3 stands at 13

The observed %Inh for COc1cc(Nc2nccc(N3CCC(NC(=O)c4cccc(C#N)c4)C3)n2)cc(OC)c1OC (centres unmarked) when tested with EPHB3 stands at 8

The observed %Inh for `CC(C)c1nc(-c2cccc(NS(=O)(=O)c3ccccc3)c2)c(-c2ccnc(Nc3ccc4c(c3)CN(C)CC4)n2)s1` when tested with EPHB3 stands at 0

---

Quick reference for %Inh among some compounds
system: YANK3; construct: gene STK32C; settings: concentration: 1 μM,replicates: in singlicate; n = 1
Give the value, in units of %, as a plain number.

The compound identified as CS(=O)c1ccc(-c2coc3ccc(-c4n[nH]c(=O)o4)cc23)cc1 (stereo not shown) registered its %Inh at 0

The compound identified as N#Cc1cccc(C(=O)NC2CCN(c3ccnc(Nc4ccc(F)cc4)n3)C2)c1 (stereo not shown) registered its %Inh at 10

The compound identified as CC(C(=O)NC1CCN(c2ccnc(Nc3ccc(F)cc3)n2)C1)c1ccc(Cl)cc1 (stereo not shown) registered its %Inh at 0

The compound identified as `Cc1ccn2nc(-c3ccc(F)cc3)c(-c3ccncc3)c2c1.Cl` registered its %Inh at 0

The compound identified as `CN(c1ccccc1CNc1nc(Nc2ccc3c(c2)CC(=O)N3)ncc1C(F)(F)F)S(C)(=O)=O` registered its %Inh at 0

The compound identified as `C[C@@H](Oc1cc(-n2cnc3cc(-c4cnn(C)c4)ccc32)sc1C(N)=O)c1ccccc1Cl` registered its %Inh at 13

The compound identified as `O=C(Nc1cccc(Oc2ccc3nccn3n2)c1)Nc1cccc(C(F)(F)F)c1` registered its %Inh at 0

The compound identified as `O=C(NOCC1CC1)c1cc(Br)c(F)c(F)c1Nc1ccc(I)cc1Cl` registered its %Inh at 2

The compound identified as `Cc1ccc(Nc2ccnc(Nc3ccc4c(c3)CS(=O)(=O)C4)n2)cc1O.Cl` registered its %Inh at 0

The compound identified as `NC(=O)c1ccc(-c2cc3ncnc(SCC(=O)O)c3s2)cc1` registered its %Inh at 0

The compound identified as `Cl.c1ccc(Oc2ccc(Nc3ccnc4cc(-c5ccc(CN6CCNCC6)o5)ccc34)cc2)nc1` registered its %Inh at 0

The compound identified as `O=C(Nc1cccc(C(F)(F)F)c1)c1cccc(Oc2ccc3nccn3n2)c1` registered its %Inh at 30

The compound identified as `CCCC(=O)Nc1n[nH]c2ncccc12` registered its %Inh at 0

The compound identified as `Nc1nccc(-c2ccc3c(N)n[nH]c3c2)n1` registered its %Inh at 9

The compound identified as COC(=O)c1cccc(NC(=O)NC2CCN(c3ccnc(Nc4cc(OC)c(OC)c(OC)c4)n3)C2)c1 (stereo not shown) registered its %Inh at 0

The compound identified as `Cn1ccc2ncnc(Oc3ccc(NC(=O)Nc4ccnc(C(F)(F)F)c4)c(Cl)c3)c21` registered its %Inh at 0

The compound identified as COc1cc(Nc2nccc(N3CCC(NC(=O)c4cccc(C#N)c4)C3)n2)cc(OC)c1OC (stereo not shown) registered its %Inh at 0

The compound identified as COc1ccc(Nc2nccc(N3CCC(NC(=O)c4cccc(C#N)c4)C3)n2)cc1 (stereo not shown) registered its %Inh at 0

The compound identified as `O=C(Nc1n[nH]c2cc(-c3ccco3)ccc12)C1CC1` registered its %Inh at 0

The compound identified as `Cc1cccc(-c2nc(Nc3ccncc3)c3sccc3n2)n1` registered its %Inh at 0

The compound identified as `COc1cccc(C2=C(Nc3cccc(Cl)c3)C(=O)NC2=O)c1` registered its %Inh at 11

---

Quick reference for %Inh among some compounds
test system: FES; details: concentration: 1 μM,replicates: in singlicate; n = 1
Respond with a number, then the unit of measure.

Illustrative cases are given below, each with its answer.
Cc1ccc2c(-c3ccnc(Nc4ccc(C(F)(F)F)cc4)n3)cnn2n1 :: 10%
CS(=O)(=O)Nc1ccc(-c2ccnc3[nH]ccc23)cc1 :: 0%
Cn1ccc2ncnc(Oc3ccc(NC(=O)Nc4cncc(C(F)(F)F)c4)c(Cl)c3)c21 :: 0%

The compound identified as `O=C(Nc1cccc(Oc2ccc3nccn3n2)c1)Nc1cccc(C(F)(F)F)c1` registered its %Inh at 2%

The compound identified as `CCn1c(-c2nonc2N)nc2cncc(Br)c21` registered its %Inh at 8%

---

Quick reference for %Inh among some molecules
test system: DRAK2; construct: gene STK17B; settings: concentration: 1 μM,replicates: in singlicate; n = 1
Give the value, in units of %, as a plain number.

Illustrative cases are given below, each with its answer.
CN1CCN(CCNc2nc3cc(Oc4ccc(NC(=O)Nc5cc(C(F)(F)F)ccc5F)cc4)ccc3[nH]2)CC1.Cl.Cl [GW768504] :: 17
COc1cccc(OC)c1C(=O)Nc1cccc(-c2nn3ccccc3c2-c2ccnc(Nc3cccc(F)c3)n2)c1 [GSK361065] :: 12
CCN1CCN(CCCC(=O)Nc2n[nH]c3nc(-c4ccc(O)cc4)c(Br)cc23)CC1 [SB-731579] :: 0
N#Cc1cccc(C(=O)NC2CCN(c3ccnc(Nc4ccc(F)cc4)n3)C2)c1 (stereo not shown) [GSK1379708] :: 4
CC(=O)Nc1nc2cnc(Nc3cc(NC(=O)c4cccc(CC(C)(C)C#N)c4)ccc3C)nc2s1 :: 0

The observed %Inh for Cl.c1ccc(Oc2ccc(Nc3ccnc4cc(-c5ccc(CN6CCNCC6)o5)ccc34)cc2)nc1 [GW567142] when tested with DRAK2 stands at 0

The observed %Inh for Cc1ccc(CC(=O)N2CCc3cc(-c4cn(C)c5ncnc(N)c45)ccc32)cc1 [GSK2634758] when tested with DRAK2 stands at 0
